The origin of these recorded values is paper PMC8780828.

# experimentalProtocol: in vitro
# runParameters: both, human, microsomes, pH 7.4
Task for the reader: assign each of the following compounds its reported half-life.
Could you give me the number in min? Just the number is fine.

Data point: `O=C(O)c1cc(-c2ccc(/C=C3\SC(=S)N(CCc4ccccc4)C3=O)o2)ccc1Cl` ; half-life = 112

Data point: C[C@]12CC[C@H]3[C@@H](CCC4=CC(=O)CC[C@@]43C)[C@@H]1CC[C@@H]2O [Testosterone, reference compound] ; half-life = 11.3

====

# experimentalProtocol: in vivo
# runParameters: female, Sprague Dawley, rat, t1/2 (range PO and IV)
measurementLabel: half-life

Data point: `O=C(O)c1cccc(-c2ccc(/C=C3\SC(=S)N(CCc4ccccc4)C3=O)o2)c1` ; half-life = 3.5 to 3.9 h

====

# studyTarget: CYP2C19 (Homo sapiens)
# experimentalProtocol: in vitro
# runParameters: microsomes, pH 7.4
measurementLabel: activity at 0.123 µM (%)
Could you give me the number in %? Just the number is fine.

Item `O=C(O)c1cc(-c2ccc(/C=C3\SC(=S)N(CCc4ccccc4)C3=O)o2)ccc1Cl` was tested on CYP2C19 (Homo sapiens); the reported activity at 0.123 µM is 101

====

# studyTarget: CYP2C9 (Homo sapiens, UniProt P11712)
# Sequence (P11712 whole entry): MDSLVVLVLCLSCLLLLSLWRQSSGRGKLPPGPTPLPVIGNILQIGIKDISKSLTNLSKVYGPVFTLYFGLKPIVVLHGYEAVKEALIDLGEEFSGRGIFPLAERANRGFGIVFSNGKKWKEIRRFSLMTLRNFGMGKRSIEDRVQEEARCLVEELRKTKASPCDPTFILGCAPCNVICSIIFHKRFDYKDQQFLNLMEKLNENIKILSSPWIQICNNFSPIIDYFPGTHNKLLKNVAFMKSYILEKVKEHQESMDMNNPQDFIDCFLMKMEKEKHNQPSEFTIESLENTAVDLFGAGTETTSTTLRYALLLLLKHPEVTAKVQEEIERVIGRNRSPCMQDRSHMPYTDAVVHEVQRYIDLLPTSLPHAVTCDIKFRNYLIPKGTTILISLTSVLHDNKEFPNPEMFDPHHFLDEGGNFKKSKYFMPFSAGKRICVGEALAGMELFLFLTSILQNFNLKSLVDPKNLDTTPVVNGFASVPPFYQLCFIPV
# experimentalProtocol: in vitro
# runParameters: microsomes, pH 7.4
measurementLabel: activity at 0.123 µM
Just so you know, I need the unit written after the number.

Data point: O=C(O)c1cc(-c2ccc(/C=C3\SC(=S)N(CCc4ccccc4)C3=O)o2)ccc1Cl [NBCoV1] ; activity at 0.123 µM = 97.2%

====

# studyTarget: CYP2C8 (Homo sapiens)
# experimentalProtocol: in vitro
# runParameters: microsomes, pH 7.4
measurementLabel: activity at 0.123 µM (%)
Could you give me the number in %? Just the number is fine.

Data point: `O=C(O)c1cc(-c2ccc(/C=C3\SC(=S)N(CCc4ccccc4)C3=O)o2)ccc1Cl` ; activity at 0.123 µM = 98.3

====

# studyTarget: CYP3A (Homo sapiens)
# Sequence (P08684 2-503): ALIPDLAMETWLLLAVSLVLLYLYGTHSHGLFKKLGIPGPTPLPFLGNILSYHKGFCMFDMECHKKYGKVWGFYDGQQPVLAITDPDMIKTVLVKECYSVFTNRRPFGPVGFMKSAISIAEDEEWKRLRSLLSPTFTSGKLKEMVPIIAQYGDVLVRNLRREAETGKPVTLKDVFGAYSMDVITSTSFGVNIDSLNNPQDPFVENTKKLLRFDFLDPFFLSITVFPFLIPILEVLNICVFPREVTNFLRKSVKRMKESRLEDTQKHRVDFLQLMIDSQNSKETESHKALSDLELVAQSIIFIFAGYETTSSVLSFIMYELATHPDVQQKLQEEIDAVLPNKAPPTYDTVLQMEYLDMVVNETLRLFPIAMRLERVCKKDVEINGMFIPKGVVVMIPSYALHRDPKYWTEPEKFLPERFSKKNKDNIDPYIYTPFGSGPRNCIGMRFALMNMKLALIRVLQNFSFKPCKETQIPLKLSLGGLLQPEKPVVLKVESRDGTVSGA
# experimentalProtocol: in vitro
# runParameters: microsomes, pH 7.4, % of Control Enzyme Activity, 0.0412 μM, n=1
measurementLabel: activity at 0.0412 µM
Just so you know, I need the unit written after the number.

Data point: `O=C(O)c1cc(-c2ccc(/C=C3\SC(=S)N(CCc4ccccc4)C3=O)o2)ccc1Cl` ; activity at 0.0412 µM = 97%

====

# experimentalProtocol: in vivo
# runParameters: female, Sprague Dawley, rat, po, 10 mg/kg, MRT0-inf_obs
Task for the reader: assign each of the following compounds its reported MRT inf.
Could you give me the number in h? Just the number is fine.

Data point: `O=C(O)c1cccc(-c2ccc(/C=C3\SC(=S)N(CCc4ccccc4)C3=O)o2)c1` ; MRT inf = 7.28

Data point: `O=C(O)c1cc(-c2ccc(/C=C3\SC(=S)N(CCc4ccccc4)C3=O)o2)ccc1Cl` ; MRT inf = 14

====

# studyTarget: CYP2C8 (Homo sapiens)
# experimentalProtocol: in vitro
# runParameters: microsomes, pH 7.4
measurementLabel: activity at 3.33 µM (%)
Could you give me the number in %? Just the number is fine.

Data point: `O=C(O)c1cc(-c2ccc(/C=C3\SC(=S)N(CCc4ccccc4)C3=O)o2)ccc1Cl` ; activity at 3.33 µM = 25.3

====

# studyTarget: CYP1A2 (Homo sapiens)
# Sequence (P05177 whole entry): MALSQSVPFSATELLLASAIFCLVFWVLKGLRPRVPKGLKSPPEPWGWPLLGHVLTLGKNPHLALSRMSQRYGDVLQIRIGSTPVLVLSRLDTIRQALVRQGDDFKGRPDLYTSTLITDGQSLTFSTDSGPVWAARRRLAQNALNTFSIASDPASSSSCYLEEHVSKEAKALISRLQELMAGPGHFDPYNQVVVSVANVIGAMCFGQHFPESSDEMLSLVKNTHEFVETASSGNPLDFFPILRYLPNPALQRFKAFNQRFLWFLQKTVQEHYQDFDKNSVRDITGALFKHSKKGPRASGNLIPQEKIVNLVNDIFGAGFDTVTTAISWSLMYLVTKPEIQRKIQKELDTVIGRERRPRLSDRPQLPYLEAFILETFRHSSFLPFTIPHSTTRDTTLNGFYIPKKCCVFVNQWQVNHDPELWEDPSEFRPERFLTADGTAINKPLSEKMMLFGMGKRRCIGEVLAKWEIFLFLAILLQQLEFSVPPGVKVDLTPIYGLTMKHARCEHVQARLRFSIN
# experimentalProtocol: in vitro
# runParameters: microsomes, pH 7.4
measurementLabel: activity at 0.123 µM (%)
Could you give me the number in %? Just the number is fine.

Data point: O=C(O)c1cc(-c2ccc(/C=C3\SC(=S)N(CCc4ccccc4)C3=O)o2)ccc1Cl [NBCoV1] ; activity at 0.123 µM = 93.8

====

# studyTarget: CYP2B6 (Homo sapiens, UniProt P20813)
# Sequence (P20813 whole entry): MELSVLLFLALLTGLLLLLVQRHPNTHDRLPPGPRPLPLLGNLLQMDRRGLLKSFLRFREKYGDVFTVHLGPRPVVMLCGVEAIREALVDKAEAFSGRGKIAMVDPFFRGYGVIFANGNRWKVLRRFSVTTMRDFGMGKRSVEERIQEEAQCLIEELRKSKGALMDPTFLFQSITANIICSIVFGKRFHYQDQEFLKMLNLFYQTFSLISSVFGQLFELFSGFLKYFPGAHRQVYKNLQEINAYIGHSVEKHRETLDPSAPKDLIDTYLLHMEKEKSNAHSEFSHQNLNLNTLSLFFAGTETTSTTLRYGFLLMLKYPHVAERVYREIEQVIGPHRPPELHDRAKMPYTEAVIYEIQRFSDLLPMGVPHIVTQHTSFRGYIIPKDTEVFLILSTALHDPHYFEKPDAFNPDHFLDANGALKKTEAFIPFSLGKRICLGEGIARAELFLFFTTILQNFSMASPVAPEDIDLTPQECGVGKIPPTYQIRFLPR
# experimentalProtocol: in vitro
# runParameters: microsomes, pH 7.4
measurementLabel: activity at 0.123 µM
Just so you know, I need the unit written after the number.

Item `O=C(O)c1cc(-c2ccc(/C=C3\SC(=S)N(CCc4ccccc4)C3=O)o2)ccc1Cl` was tested on CYP2B6 (Homo sapiens, UniProt P20813); the reported activity at 0.123 µM is 90.4%

====

# experimentalProtocol: in vitro
# runParameters: human
Task for the reader: assign each of the following molecules its reported CC50.

Data point: `O=C1NC(=S)S/C1=C\c1ccc(-c2ccc(C(=O)O)cc2)o1` ; CC50 = ~100 µM

Data point: `C#CCN1C(=O)/C(=C/c2ccc(-c3ccc(Cl)c(C(=O)O)c3)o2)SC1=S` ; CC50 = 92 µM

Data point: `O=C1NC(=S)S/C1=C\c1ccc(-c2ccc(Cl)c(C(=O)O)c2)o1` ; CC50 = > 100 µM

====

# studyTarget: UniProt:P10635
# Sequence (P10635 whole entry): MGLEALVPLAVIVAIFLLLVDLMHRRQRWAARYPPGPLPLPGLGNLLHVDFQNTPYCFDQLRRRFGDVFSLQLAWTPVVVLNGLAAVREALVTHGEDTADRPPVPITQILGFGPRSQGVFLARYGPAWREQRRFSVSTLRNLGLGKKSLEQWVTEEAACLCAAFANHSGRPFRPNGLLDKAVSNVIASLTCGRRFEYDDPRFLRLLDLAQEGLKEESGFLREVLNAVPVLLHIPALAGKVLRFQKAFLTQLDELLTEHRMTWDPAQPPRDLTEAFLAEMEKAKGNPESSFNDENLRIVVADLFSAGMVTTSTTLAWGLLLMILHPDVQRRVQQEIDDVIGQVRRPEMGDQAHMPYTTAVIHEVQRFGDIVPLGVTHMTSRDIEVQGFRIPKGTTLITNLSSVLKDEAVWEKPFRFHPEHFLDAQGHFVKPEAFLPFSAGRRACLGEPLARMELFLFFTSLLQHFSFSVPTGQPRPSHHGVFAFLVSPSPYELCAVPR
# experimentalProtocol: in vitro
# runParameters: microsomes, pH 7.4
measurementLabel: activity at 3.33 µM
Just so you know, I need the unit written after the number.

Data point: O=C(O)c1cc(-c2ccc(/C=C3\SC(=S)N(CCc4ccccc4)C3=O)o2)ccc1Cl [NBCoV1] ; activity at 3.33 µM = 84.3%

====

# experimentalProtocol: in vivo
# runParameters: female, Sprague Dawley, rat, F% (bioavailability)
measurementLabel: bioavailability
Just so you know, I need the unit written after the number.

Data point: `O=C(O)c1cc(-c2ccc(/C=C3\SC(=S)N(CCc4ccccc4)C3=O)o2)ccc1Cl` ; bioavailability = 20%

Data point: `O=C(O)c1cccc(-c2ccc(/C=C3\SC(=S)N(CCc4ccccc4)C3=O)o2)c1` ; bioavailability = 0.9%

====

# studyTarget: CYP2C19 (Homo sapiens, UniProt P33261)
# Sequence (P33261 whole entry): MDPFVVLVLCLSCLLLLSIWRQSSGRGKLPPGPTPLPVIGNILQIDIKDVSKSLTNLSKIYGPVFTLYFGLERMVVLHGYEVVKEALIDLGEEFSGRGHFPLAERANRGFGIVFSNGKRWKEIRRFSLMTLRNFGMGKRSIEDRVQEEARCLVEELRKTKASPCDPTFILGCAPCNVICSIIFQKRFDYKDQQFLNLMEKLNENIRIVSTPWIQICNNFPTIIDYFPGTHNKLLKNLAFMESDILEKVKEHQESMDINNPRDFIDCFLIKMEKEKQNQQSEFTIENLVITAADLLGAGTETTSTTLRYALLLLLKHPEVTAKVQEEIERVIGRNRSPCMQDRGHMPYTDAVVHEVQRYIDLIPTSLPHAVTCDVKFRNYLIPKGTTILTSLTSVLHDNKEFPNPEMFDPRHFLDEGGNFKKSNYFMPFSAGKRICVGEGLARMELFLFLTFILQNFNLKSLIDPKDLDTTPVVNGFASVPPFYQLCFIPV
# experimentalProtocol: in vitro
# runParameters: microsomes, pH 7.4
measurementLabel: activity at 0.0412 µM (%)
Could you give me the number in %? Just the number is fine.

Data point: O=C(O)c1cc(-c2ccc(/C=C3\SC(=S)N(CCc4ccccc4)C3=O)o2)ccc1Cl [NBCoV1] ; activity at 0.0412 µM = 110

====

# Tested on: P-gp
# experimentalProtocol: in vitro
# runParameters: human, Caco-2, pH 7.4, Caco-2 permeability (mean Papp) B-to-A, 5 µM
measurementLabel: Papp B→A

Data point: O=C(O)c1cc(-c2ccc(/C=C3\SC(=S)N(CCc4ccccc4)C3=O)o2)ccc1Cl [NBCoV1] ; Papp B→A = 20.4 ×10⁻⁶ cm/s

====

measurementLabel: pIC50
Please report pIC50 as the negative decimal logarithm of the molar concentration, giving only the number.

Item O=C(O)c1cc(-c2ccc(/C=C3\SC(=S)N(CCc4ccccc4)C3=O)o2)ccc1Cl [NBCoV1] was tested on CYP2C8 (Homo sapiens); the reported pIC50 is 5.68

====

# experimentalProtocol: physchem
# runParameters: pH 7.4, Solubility (AVG)
measurementLabel: solubility (µM)
Could you give me the number in µM? Just the number is fine.

Data point: `O=C(O)c1cc(-c2ccc(/C=C3\SC(=S)N(CCc4ccccc4)C3=O)o2)ccc1Cl` ; solubility = 4.72

====

# studyTarget: CYP2C8 (Homo sapiens, UniProt P10632)
# Sequence (P10632 whole entry): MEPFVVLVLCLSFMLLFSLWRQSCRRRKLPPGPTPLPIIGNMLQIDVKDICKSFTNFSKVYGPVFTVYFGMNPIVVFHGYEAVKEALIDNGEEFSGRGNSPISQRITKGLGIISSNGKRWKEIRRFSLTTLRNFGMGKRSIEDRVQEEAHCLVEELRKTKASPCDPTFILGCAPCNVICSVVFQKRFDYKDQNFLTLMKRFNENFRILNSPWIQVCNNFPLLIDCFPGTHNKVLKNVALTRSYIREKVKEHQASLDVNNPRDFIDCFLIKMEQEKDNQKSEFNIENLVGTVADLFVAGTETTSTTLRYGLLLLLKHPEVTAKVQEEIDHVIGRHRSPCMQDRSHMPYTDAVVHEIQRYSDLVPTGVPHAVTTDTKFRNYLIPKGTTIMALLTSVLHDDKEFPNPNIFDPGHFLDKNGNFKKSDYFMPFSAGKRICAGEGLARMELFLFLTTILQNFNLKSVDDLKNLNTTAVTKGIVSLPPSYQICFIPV
# experimentalProtocol: in vitro
# runParameters: microsomes, pH 7.4
measurementLabel: activity at 0.0137 µM (%)
Could you give me the number in %? Just the number is fine.

Data point: O=C(O)c1cc(-c2ccc(/C=C3\SC(=S)N(CCc4ccccc4)C3=O)o2)ccc1Cl [NBCoV1] ; activity at 0.0137 µM = 102

====

# experimentalProtocol: in vitro
# runParameters: both, human, microsomes, pH 7.4
measurementLabel: remaining at 0.5 h (%)
Could you give me the number in %? Just the number is fine.

Data point: `O=C(O)c1cc(-c2ccc(/C=C3\SC(=S)N(CCc4ccccc4)C3=O)o2)ccc1Cl` ; remaining at 0.5 h = 80.5

====

# studyTarget: CYP2C9 (Homo sapiens)
# experimentalProtocol: in vitro
# runParameters: microsomes, pH 7.4
measurementLabel: activity at 0.37 µM
Just so you know, I need the unit written after the number.

Data point: `O=C(O)c1cc(-c2ccc(/C=C3\SC(=S)N(CCc4ccccc4)C3=O)o2)ccc1Cl` ; activity at 0.37 µM = 95.1%

====

# studyTarget: UniProtKB P05177
# experimentalProtocol: in vitro
# runParameters: microsomes, pH 7.4
measurementLabel: activity at 0.37 µM (%)
Could you give me the number in %? Just the number is fine.

Data point: `O=C(O)c1cc(-c2ccc(/C=C3\SC(=S)N(CCc4ccccc4)C3=O)o2)ccc1Cl` ; activity at 0.37 µM = 92.2

====

# Tested on: control pseudovirus NL4-3.Luc.R-E-/A-MLV
# experimentalProtocol: Control pseudovirus A-MLV assay in 293T/ACE2 cells
# Format: cell-based, amphotropic murine leukemia virus (A-MLV)
# runParameters: NL43, 293T/ACE2
measurementLabel: pIC50
Please report pIC50 as the negative decimal logarithm of the molar concentration, giving only the number.

Data point: Cc1c(C(=O)O)cncc1-c1ccc(/C=C2\SC(=S)N(CCc3ccccc3)C2=O)o1 [NBCoV9] ; pIC50 = 5.79

Data point: O=C(O)c1cccc(-c2ccc(/C=C3\SC(=S)N(CCc4ccccc4)C3=O)o2)c1 [NBCoV2] ; pIC50 = 6.11

Data point: O=C(O)c1cc(-c2ccc(/C=C3\SC(=S)N(CCc4ccccc4)C3=O)o2)ccc1Cl [NBCoV1] ; pIC50 = 5.85

Data point: O=C(O)c1cc(-c2ccc(/C=C3\SC(=S)N(CCc4ccccc4)C3=O)o2)ccc1F [NBCoV3] ; pIC50 = 6.02

Data point: Cc1ccc(-c2ccc(/C=C3\SC(=S)N(CCc4ccccc4)C3=O)o2)cc1C(=O)O [NBCoV4] ; pIC50 = 5.79
